# credit: patent US9174991B2

recorded.conditions: 70° C., 5 mbar, 2 d
Quick list: HPLC-purity (10.5 min) per entry.

- compound: "Nc1nc(O)c2c(CCc3ccc(C(=O)N[C@@H](CCC(=O)O)C(=O)O)cc3)c[nH]c2n1 [Form A]"
  unit.string: "%"
  HPLC-purity (10.5 min): 99.67
- compound: "Nc1nc(O)c2c(CCc3ccc(C(=O)N[C@@H](CCC(=O)O)C(=O)O)cc3)c[nH]c2n1 [2.5 hydrate]"
  unit.string: "%"
  HPLC-purity (10.5 min): 99.88
- compound: "Nc1nc(O)c2c(CCc3ccc(C(=O)N[C@@H](CCC(=O)O)C(=O)O)cc3)c[nH]c2n1 [Form IV]"
  unit.string: "%"
  HPLC-purity (10.5 min): 99.70
- compound: "Nc1nc(O)c2c(CCc3ccc(C(=O)N[C@@H](CCC(=O)O)C(=O)O)cc3)c[nH]c2n1 [Heptahydrate]"
  unit.string: "%"
  HPLC-purity (10.5 min): 99.86
